Origin of measurements: PubChem BioAssay (NCI)

- System: RPMI-8226 leukemia
- TEST_NAME: NCI tumour cell line growth inhibition, 48 h; in the data active = GI50 below about 0.43 µM; inactive = the rest
Allowed answers: 1 for active, 0 for inactive

Lab log entry: COC(=O)C(Br)(C(=O)OC)C(Br)C(Br)C(Br)c1ccccc1 (stereo not drawn) — outcome as called in the assay?
0

Lab log entry: "COc1ccc(/C=C\c2cc(OC)c(OC)c(OC)c2)cc1N/C=C\C(=O)c1c[nH]c2ccccc12" — outcome as called in the assay?
1

Lab log entry: O=C(Oc1c(Cl)c(Cl)c(Cl)c(Cl)c1Cl)C1CCCN1C(=O)OCc1ccccc1 (stereo not drawn) — outcome as called in the assay?
0

Lab log entry: "COc1ccccc1CNC(=O)/C=C/c1ccc(O)c(O)c1" — outcome as called in the assay?
0

Lab log entry: "COc1cc(-c2cn(-c3ccc(F)cc3)c(=O)[nH]2)cc(OC)c1OC" — outcome as called in the assay?
0

Lab log entry: "COc1ncc(-c2ccc3ncnc(Nc4cccc(Cl)c4)c3c2)cc1NS(C)(=O)=O" — outcome as called in the assay?
0

Lab log entry: "Cc1cc(O)cc(-c2nn(C)cc2-c2cc(N3CCOCC3)nc(-c3cccnc3)n2)c1" — outcome as called in the assay?
0

Lab log entry: CCC1C[N+]2=C(c3cc(OC)c(OC)cc3CC2)c2c1cc1n2CCc2cc(OC)c(OC)cc2-1 (stereo not drawn) — outcome as called in the assay?
0

Lab log entry: "COc1ccc(C(=O)c2cc(C)c(OC)c(C)c2)c(OC)c1OC(=O)C(Cl)Cl" — outcome as called in the assay?
1

Lab log entry: "COc1cc(NC(=O)c2cc3ccccc3cc2O)c(OC)cc1Cl" — outcome as called in the assay?
1

Lab log entry: "CCN1C(=O)N[C@H]2[C@@H]3NC(=O)c4ccc(Cl)n4[C@@H]3C[C@]21O" — outcome as called in the assay?
1

Lab log entry: N#CC1=C(N)Oc2c(ccc3cccnc23)C1c1ccccc1 (stereo not drawn) — outcome as called in the assay?
0

Lab log entry: "NC1=CC(=O)C(=O)c2ccccc21" — outcome as called in the assay?
0
